- System: SKOV-3 (ovarian)
- Assay procedure: In vitro cytotoxicity (GI50), Sulforhodamine B staining, SKOV-3
- Assay type: cell-based
- Test settings: SKOV-3 cells, 48 hours contact, read-out: Concentration that produce 50% cell growth inhibition (GI50) SKOV-3 (OVARIAN)
For each record, write down the corresponding GI50.
Give bare numbers, in nM.

Look over these answered cases.
Compound	Readout units	GI50
CCCCOc1ccc(C(=O)Oc2ccc3nc4c(c(CC)c3c2)Cn2c-4cc3c(c2=O)COC(=O)C3(O)CC)cc1 (stereo not shown)	nM	5.5
CCc1c2c(nc3ccc(OC(=O)CCC(=O)OCc4ccccc4)cc13)-c1cc3c(c(=O)n1C2)COC(=O)C3(O)CC (stereo not shown)	nM	1.29
CCc1c2c(nc3ccc(OC(=O)NC(C)(C)C)cc13)-c1cc3c(c(=O)n1C2)COC(=O)C3(O)CC (stereo not shown)	nM	1.29

Can you share its GI50? I mean this compound: CCc1c2c(nc3ccc(OC(=O)CCC(=O)OCc4ccc(C)cc4)cc13)-c1cc3c(c(=O)n1C2)COC(=O)C3(O)CC (stereo not shown) 6.16

---

- System: HCT-15 (colorectal)
- Assay procedure: In vitro cytotoxicity (GI50), Sulforhodamine B staining, HCT-15
- Assay type: cell-based
- Test settings: HCT-15 cells, 48 hours contact, read-out: Concentration that produce 50% cell growth inhibition (GI50) HCT-15 (COLON)
Recorded metric: GI50 (nM)
One number for each entry, in nM.

Some compounds with recorded GI50:
Compound	System tested	GI50 / nM
CCc1c2c(nc3ccc(OC(=O)CCC(=O)OCc4ccccc4)cc13)-c1cc3c(c(=O)n1C2)COC(=O)C3(O)CC (stereo not shown)	HCT-15 (colorectal)	50.1
CCCCOc1ccc(C(=O)Oc2ccc3nc4c(c(CC)c3c2)Cn2c-4cc3c(c2=O)COC(=O)C3(O)CC)cc1 (stereo not shown)	HCT-15 (colorectal)	141
CCc1c2c(nc3ccc(OCc4ccccc4)cc13)-c1cc3c(c(=O)n1C2)COC(=O)[C@]3(O)CC	HCT-15 (colorectal)	5.66

Now take the following compound into account.
Reported GI50 for CCc1c2c(nc3ccc(OC(=O)CCC(=O)OCc4c(C)c(C)c(C)c(C)c4C)cc13)-c1cc3c(c(=O)n1C2)COC(=O)C3(O)CC (stereo not shown) : what is it? 32.4

---

- Test system: SKOV-3 (ovarian)
- Assay procedure: In vitro cytotoxicity (GI50), Sulforhodamine B staining, SKOV-3
- Assay type: cell-based
- Test settings: SKOV-3 cells, 48 hours contact, read-out: Concentration that produce 50% cell growth inhibition (GI50) SKOV-3 (OVARIAN)
Recorded metric: GI50
Report field: quantity (unit follows the number).

Use the examples below as a reference point.
Compound	Recorded metric	Result
CCc1c2c(nc3ccc(OC(=O)CC4(CC(=O)OCc5ccccc5)CCCC4)cc13)-c1cc3c(c(=O)n1C2)COC(=O)[C@]3(O)CC	GI50	2.95 nM
CCCCCCCCOC(=O)CCC(=O)Oc1ccc2nc3c(c(CC)c2c1)Cn1c-3cc2c(c1=O)COC(=O)C2(O)CC (stereo not shown)	GI50	3.46 nM
CCC1(OC(=O)CCC(=O)OCc2ccccc2)C(=O)OCc2c1cc1n(c2=O)Cc2cc3ccccc3nc2-1 (stereo not shown) [20-(benzyl succinate)camptothecin]	GI50	562 nM
CCc1c2c(nc3ccc(OCc4ccccc4)cc13)-c1cc3c(c(=O)n1C2)COC(=O)[C@]3(O)CC [10-benzyloxy-7-ethylcamptothecin]	GI50	15 nM
CCc1c2c(nc3ccc(OC(=O)CCC(=O)OCc4c(C)c(C)c(C)c(C)c4C)cc13)-c1cc3c(c(=O)n1C2)COC(=O)C3(O)CC (stereo not shown)	GI50	2.13 nM
CCc1c2c(nc3ccc(OC(=O)CCC(=O)OCc4c(C)cc(C)cc4C)cc13)-c1cc3c(c(=O)n1C2)COC(=O)C3(O)CC (stereo not shown)	GI50	3.67 nM

// next entry
Request the reported GI50 associated with CCCCCCCCOC(=O)CCC(=O)OC1(CC)C(=O)OCc2c1cc1n(c2=O)Cc2cc3ccccc3nc2-1 (stereo not shown) [20-(1-octyl succinate)camptothecin] 2420 nM

Where do the numbers come from? From patent US7786134B2.
